Target: T1, tail-chimeric peptide IhfA3-IhfB2NTHI (nontypeable Haemophilus influenzae …)
T1 construct: also called IHF(NTHI) tail chimeric peptide; IHFNTHI tail chimeric peptide
T1 peptide: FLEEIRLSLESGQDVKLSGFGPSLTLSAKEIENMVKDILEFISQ
Assay: SPR Biacore 3000, HuMab immobilized, peptide as analyte
Listing of recorded pKd by entry.
Scale for pKd: -log10 of concentration given in mol/L; no unit attached.

Query :: For the binder humanized anti-tail monoclonal antibody, heavy chain SEQ ID NO: 4 and light chain SEQ ID NO: 11 (antibody, V domains shown, also called H10213 (11E7.C7 Humanized HC1) + L10214 (11E7.C7 Humanized LC2)) VH: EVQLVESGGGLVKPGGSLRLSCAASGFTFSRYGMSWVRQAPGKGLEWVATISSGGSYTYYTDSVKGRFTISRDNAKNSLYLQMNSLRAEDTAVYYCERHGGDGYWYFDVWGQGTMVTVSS VL: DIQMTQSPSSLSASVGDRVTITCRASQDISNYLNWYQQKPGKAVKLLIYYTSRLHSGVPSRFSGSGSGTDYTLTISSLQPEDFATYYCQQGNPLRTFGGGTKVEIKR , what pKd is on record?
Result :: 7.21
